Test system: SMMC-7721
Experiment: Cytotoxicity against human SMMC7721 cells at 30 uM after 24 hrs by MTT assay
Format: functional
Active and inactive are the calls of the source. The calls are words filed in the database; no cut-off is given here.
Outcome Measure: Activity

Solved cases below.
- CC(C)C[C@H](Nc1cc(O/N=[N+](\[O-])N(C)CCO)c([N+](=O)[O-])cc1[N+](=O)[O-])C(=O)O[C@H]1CC[C@]2(C)[C@H]3CC=C4[C@@H]5CC(C)(C)CC[C@]5(C(=O)O[C@@H]5O[C@H](CO)[C@H](O)[C@H](O)[C@H]5O)CC[C@@]4(C)[C@]3(C)CC[C@H]2C1(C)C: Active
- C[C@H](Nc1cc(O/N=[N+](\[O-])N(C)CCO)c([N+](=O)[O-])cc1[N+](=O)[O-])C(=O)O[C@H]1CC[C@]2(C)[C@H]3CC=C4[C@@H]5CC(C)(C)CC[C@]5(C(=O)O[C@@H]5O[C@H](CO)[C@H](O)[C@H](O)[C@H]5O)CC[C@@]4(C)[C@]3(C)CC[C@H]2C1(C)C: Active
- CN1CCN(/[N+]([O-])=N\Oc2cc(NCCC(=O)O[C@H]3CC[C@]4(C)[C@H]5CC=C6[C@@H]7CC(C)(C)CC[C@]7(C(=O)O[C@@H]7O[C@H](CO)[C@H](O)[C@H](O)[C@H]7O)CC[C@@]6(C)[C@]5(C)CC[C@H]4C3(C)C)c([N+](=O)[O-])cc2[N+](=O)[O-])CC1: Active
- CN(CCO)/[N+]([O-])=N/Oc1cc(N[C@@H](Cc2ccccc2)C(=O)O[C@H]2CC[C@]3(C)[C@H]4CC=C5[C@@H]6CC(C)(C)CC[C@]6(C(=O)O[C@@H]6O[C@H](CO)[C@H](O)[C@H](O)[C@H]6O)CC[C@@]5(C)[C@]4(C)CC[C@H]3C2(C)C)c([N+](=O)[O-])cc1[N+](=O)[O-]: Active
- CC1(C)CC[C@]2(C(=O)O[C@@H]3O[C@H](CO)[C@H](O)[C@H](O)[C@H]3O)CC[C@]3(C)C(=CC[C@@H]4[C@@]5(C)CC[C@H](OC(=O)CCNc6cc(O/N=[N+](/[O-])N7CCN(Cc8ccccc8)CC7)c([N+](=O)[O-])cc6[N+](=O)[O-])C(C)(C)[C@@H]5CC[C@]43C)[C@@H]2C1: Active

Given the compound CCN(CC)/[N+]([O-])=N\Oc1cc(NCCC(=O)O[C@H]2CC[C@]3(C)[C@H]4CC=C5[C@@H]6CC(C)(C)CC[C@]6(C(=O)O[C@@H]6O[C@H](CO)[C@H](O)[C@H](O)[C@H]6O)CC[C@@]5(C)[C@]4(C)CC[C@H]3C2(C)C)c([N+](=O)[O-])cc1[N+](=O)[O-] , what is its reported Activity? Active

I have this compound here, CN(CCO)/[N+]([O-])=N/Oc1cc(NCCCC(=O)O[C@H]2CC[C@]3(C)[C@H]4CC=C5[C@@H]6CC(C)(C)CC[C@]6(C(=O)O[C@@H]6O[C@H](CO)[C@H](O)[C@H](O)[C@H]6O)CC[C@@]5(C)[C@]4(C)CC[C@H]3C2(C)C)c([N+](=O)[O-])cc1[N+](=O)[O-] , and I need its recorded Activity. Active

For CN(CCO)/[N+]([O-])=N/Oc1cc(NCC(=O)O[C@H]2CC[C@]3(C)[C@H]4CC=C5[C@@H]6CC(C)(C)CC[C@]6(C(=O)O[C@@H]6O[C@H](CO)[C@H](O)[C@H](O)[C@H]6O)CC[C@@]5(C)[C@]4(C)CC[C@H]3C2(C)C)c([N+](=O)[O-])cc1[N+](=O)[O-] , what is its reported Activity? Active

GET /values?readout=Activity&item= CN(C)/[N+]([O-])=N\Oc1cc(NCCC(=O)O[C@H]2CC[C@]3(C)[C@H]4CC=C5[C@@H]6CC(C)(C)CC[C@]6(C(=O)O[C@@H]6O[C@H](CO)[C@H](O)[C@H](O)[C@H]6O)CC[C@@]5(C)[C@]4(C)CC[C@H]3C2(C)C)c([N+](=O)[O-])cc1[N+](=O)[O-] Active
